System: Plasmodium falciparum
Test: Primary screen in NF54 nanoGlo assay, in single point, at 2uM, 72h
Type: functional, Erythrocyte
Settings: timepoint 72 hour
Out of some 150,000 compounds screened, about 540 (0.36%) showed an effect of 50% or more. The entries come from a sample that favours strong results as a whole.
The following molecules are shown together with reported % Inhibition values.
measure-name: % Inhibition (%)

molecule	measured-target	measure-name	obs-value
CCOc1ccc(Nc2c3ccccc3nc3ccccc23)cc1	Plasmodium falciparum	% Inhibition	81
CN1CC[C@@]2(CCC1=O)CN(c1ccnc3ccc(Cl)cc13)CCN2C	Plasmodium falciparum	% Inhibition	-4
O=C(NCc1ccc(Br)cc1)NC1CC2OCCCC12 (stereo not drawn)	Plasmodium falciparum	% Inhibition	-11
CN1CCC[C@@H]1CCNC1CCN(c2ccc3c(c2)CCC3)CC1	Plasmodium falciparum	% Inhibition	21
CC(C)(C)OC(=O)C1C[C@@H](N)[C@@H](n2cc(C(C)(C)C)nn2)C1 (stereo partly drawn)	Plasmodium falciparum	% Inhibition	-7
Cc1cccc(Cl)c1C(=O)NC(C1CCNCC1)[C@H]1C[C@H](O)C1 (stereo partly drawn)	Plasmodium falciparum	% Inhibition	-9
Cc1cc(C)nc(NCCC[C@H]2CCCCO2)n1	Plasmodium falciparum	% Inhibition	54
O=C(O)c1ccc(Nc2c3ccccc3nc3ccccc23)cc1	Plasmodium falciparum	% Inhibition	-3
Cc1cc(C)nc(NC[C@H]2CCCO2)n1	Plasmodium falciparum	% Inhibition	-5
O=C(NCCCn1ccnc1)[C@@H]1Cc2c(ccc3ccccc23)O1	Plasmodium falciparum	% Inhibition	4
O=C(NC1CC1C1CCCCC1)N1CCCN(C2CCOCC2)CC1 (stereo not drawn)	Plasmodium falciparum	% Inhibition	-16
Cc1ccc(Oc2nc(N3CCOCC3)nc3c2CN(S(=O)(=O)c2cccc(Cl)c2)CC3)cc1	Plasmodium falciparum	% Inhibition	8
CCN(CC(=O)N1CCCNC(=O)[C@@H]1C)c1ccccc1	Plasmodium falciparum	% Inhibition	-10
CCOc1ccc(CN2CCC[C@@](F)(C(=O)N3CCOCC3)C2)cc1OC	Plasmodium falciparum	% Inhibition	-11
CN1CCN(c2nc3c(c(Oc4cccc(F)c4)n2)CN(S(=O)(=O)c2cccc(Cl)c2)CC3)CC1	Plasmodium falciparum	% Inhibition	-5
Cc1ccccc1CC(=O)N[C@H]1CCCCNC1=O	Plasmodium falciparum	% Inhibition	0
Cc1nn(C)c2nc(OCC(=O)NC(C)(C)C)cc(C(F)(F)F)c12	Plasmodium falciparum	% Inhibition	-8
Cc1ccccc1CNC1C(=O)NCCC1C (stereo not drawn)	Plasmodium falciparum	% Inhibition	74
CCCc1nnsc1C(=O)N1CCc2nc(NC(=O)OCC)sc2C1	Plasmodium falciparum	% Inhibition	-5
Cc1ccccc1CN[C@H]1CCCOCC1	Plasmodium falciparum	% Inhibition	-4
O=S(=O)(c1cccc(Cl)c1)N1CCc2nc(N3CCCCC3)nc(Oc3ccccc3)c2C1	Plasmodium falciparum	% Inhibition	53
CC1(C)C2CCC1(C)C(OC(=O)CN1CCCCCC1)C2 (stereo not drawn)	Plasmodium falciparum	% Inhibition	0
CCn1cncc1CNC1CCN(c2ccc3c(c2)CCC3)CC1	Plasmodium falciparum	% Inhibition	-14

====

Tested on: Plasmodium falciparum
Test: Primary screen in NF54 nanoGlo assay, in single point, at 2uM, 72h; a lower Z score goes with more inhibition
Assay type: functional, Erythrocyte
Settings: timepoint 72 hour
About 540 (0.36%) of roughly 150,000 compounds showed an effect of 50% or more. The list comes from a sample in which strong results are over-represented; it also holds close analogues and randomly drawn compounds.

compound	measured-target	Z score
O=C1[C@@H]2C(c3ccccc3Cl)=NO[C@@H]2C(=O)N1c1ccc2ccccc2c1	Plasmodium falciparum	1.2
COc1ccc(CNCCC2C(C)CN(C)C(C)C2Cc2ccccc2)cc1 (stereo not given)	Plasmodium falciparum	-7.17
Cc1ccc(-c2csc(-c3nc(-c4ccccc4)cs3)n2)c(C)c1	Plasmodium falciparum	-1.13
Cc1c(C2=NO[C@H]3C(=O)N(c4ccc(Cl)cc4)C(=O)[C@@H]23)cnn1C	Plasmodium falciparum	1
Cc1c(C2=NO[C@H]3C(=O)N(c4ccc5ccccc5c4)C(=O)[C@@H]23)cnn1C	Plasmodium falciparum	-5.99

These data points were gathered from ChEMBL document CHEMBL4888484.
